Just for reference, PubChem BioAssay AID1918994 is where these values come from.

# Test system: 292921-168-R-J2-PDC complex spheroid growth
# protocol-text: Anticancer human tumor 292921-168-R-J2-PDC patient-derived pancreatic carcinoma cell line growth inhibition [AhR]
# condition-summary: second compound 10 µM; first compound 0.003 µM; stronger effect = lower value
Quick rule for you: viability, T/C under 50% gets 1, anything else gets 0.

Below are worked cases with known answers.
compound	category
Nc1ncn(C2CC(O)C(CO)S2)c(=O)n1 (centres undefined) + Cc1ccccc1N=Nc1ccc(NC(=O)c2ccnn2C)c(C)c1	0
CC(C)CC(NC(=O)C(Cc1ccccc1)NC(=O)c1cnccn1)B(O)O (centres undefined) + CC(CO)NC(=O)c1cc(-c2ccc(Cl)cc2)nn(-c2cnn(C)c2)c1=O	0

Task item: Does CCc1c2c(nc3ccc(O)cc13)-c1cc3c(c(=O)n1C2)COC(=O)[C@]3(O)CC + CC(CO)NC(=O)c1cc(-c2ccc(Cl)cc2)nn(-c2cnn(C)c2)c1=O have viability, T/C strictly under 50%?
Reply: 1

Task item: Does Nc1ncn(C2CC(O)C(CO)S2)c(=O)n1 (centres undefined) + CC(CO)NC(=O)c1cc(-c2ccc(Cl)cc2)nn(-c2cnn(C)c2)c1=O have viability, T/C strictly under 50%?
Reply: 0

Task item: Does CC(C)CC(NC(=O)C(Cc1ccccc1)NC(=O)c1cnccn1)B(O)O (centres undefined) + Cc1cncc(-c2nc(NCCc3c[nH]c4ccccc34)c3ncn(C(C)C)c3n2)c1 have viability, T/C strictly under 50%?
Reply: 0

Task item: Does CC(C)CC(NC(=O)C(Cc1ccccc1)NC(=O)c1cnccn1)B(O)O (centres undefined) + Cc1ccccc1N=Nc1ccc(NC(=O)c2ccnn2C)c(C)c1 have viability, T/C strictly under 50%?
Reply: 0

Task item: Does CCc1c2c(nc3ccc(O)cc13)-c1cc3c(c(=O)n1C2)COC(=O)[C@]3(O)CC + Cc1cncc(-c2nc(NCCc3c[nH]c4ccccc34)c3ncn(C(C)C)c3n2)c1 have viability, T/C strictly under 50%?
Reply: 1

Task item: Does CCc1c2c(nc3ccc(O)cc13)-c1cc3c(c(=O)n1C2)COC(=O)[C@]3(O)CC + Cc1ccccc1N=Nc1ccc(NC(=O)c2ccnn2C)c(C)c1 have viability, T/C strictly under 50%?
Reply: 1

* * *

Record form. Attribute: viability, T/C. Fill in for each entry.
# Tested on: 292921-168-R-J2-PDC complex spheroid growth
# protocol-text: Anticancer human tumor 292921-168-R-J2-PDC cell line growth inhibition [AhR];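 note: spheroids exposed to compounds for seven days after three days of growth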
# condition-summary: second compound 10 µM; first compound 0.0316 µM; stronger effect = lower value
Answers are plain numbers, in %.

Consider the following illustrative entries.
compound	measured-on	quantity-unit	viability, T/C
COc1cccc2c1C(=O)c1c(O)c3c(c(O)c1C2=O)CC(O)(C(=O)CO)CC3OC1CC(N)C(O)C(C)O1 (stereo unspecified) + Cc1cncc(-c2nc(NCCc3c[nH]c4ccccc34)c3ncn(C(C)C)c3n2)c1	292921-168-R-J2-PDC complex spheroid growth	%	25.3
Nc1ccn(C2OC(CO)C(O)C2(F)F)c(=O)n1 (stereo unspecified) + CC(CO)NC(=O)c1cc(-c2ccc(Cl)cc2)nn(-c2cnn(C)c2)c1=O	292921-168-R-J2-PDC complex spheroid growth	%	14.2
COc1ccc([C@@H](O)c2cc(-c3ncnc4cc(N5CCOCC5)ccc34)c(F)cc2Cl)nn1 + Cc1ccccc1N=Nc1ccc(NC(=O)c2ccnn2C)c(C)c1	292921-168-R-J2-PDC complex spheroid growth	%	57.4
CC1COCCN1c1cc(C2(S(C)(=N)=O)CC2)nc(-c2ccnc3[nH]ccc23)n1 (stereo unspecified) + Cc1ccccc1N=Nc1ccc(NC(=O)c2ccnn2C)c(C)c1	292921-168-R-J2-PDC complex spheroid growth	%	66.9
COc1ccc([C@@H](O)c2cc(-c3ncnc4cc(N5CCOCC5)ccc34)c(F)cc2Cl)nn1 + CC(CO)NC(=O)c1cc(-c2ccc(Cl)cc2)nn(-c2cnn(C)c2)c1=O	292921-168-R-J2-PDC complex spheroid growth	%	68

Task item: Identify the reported viability, T/C for the following entry. COc1cc(Nc2ncc3c(n2)-c2ccc(Cl)cc2C(c2c(F)cccc2OC)=NC3)ccc1C(=O)O + Cc1cncc(-c2nc(NCCc3c[nH]c4ccccc34)c3ncn(C(C)C)c3n2)c1
Reply: 40.4
